Data credit: ChEMBL document CHEMBL3627713

tested on: COLO 205; experiment: Cytotoxicity against human COLO205 cells assessed as growth inhibition after 48 hrs by sulforhodamine B assay; type: functional, cell-based; settings: COLO 205, 48 h
pIC50: −log10 of the molar value.

compound.string	pIC50
COc1cc(/C=C/C(=O)/C=C/c2ccco2)ccc1OCc1cn(CCN2C(=O)C(=O)c3ccccc32)nn1	5.12
COc1ccc(/C=C/C(=O)/C=C/c2ccc(OCc3cn(CCN4C(=O)C(=O)c5ccccc54)nn3)c(OC)c2)cc1	5.17
COc1cc(/C=C/C(=O)/C=C/c2cc(OC)c(OC)c(OC)c2)ccc1OCc1cn(CCN2C(=O)C(=O)c3cc(Cl)ccc32)nn1	5.22
COc1cc(/C=C/C(=O)/C=C/c2cc(OC)c(OC)c(OC)c2)ccc1OCc1cn(CCN2C(=O)C(=O)c3ccccc32)nn1	5.38
COc1ccc(/C=C/C(=O)/C=C/c2ccc(OCc3cn(CCN4C(=O)C(=O)c5ccccc54)nn3)c(OC)c2)cc1OC	5.24
COc1cc(/C=C/C(=O)/C=C/c2cccc3ccccc23)ccc1OCc1cn(CCN2C(=O)C(=O)c3cc(Cl)ccc32)nn1	4.87
